experimental details: yeast display, Sf9 membrane polyspecificity reagent, FACS + sequencing; frameworks hold sequencing errors
property: polyreactivity (PSR sort gate)

entry_sequence=QVQLVESGGGLVQAGGSLRLSCAASGSIFSNYDMGWYRQAPGKERELVAGITRSGTNTYYADSVKGRFTISRDNAKNTVYLKMNRLKPEDTAVYYCAAAIRPGMDYWGQGTQVTVSS experimental_value="high polyreactivity"
entry_sequence=QDQLVESGGGLVQAGGSLRLSCAASGFTFNTYAMGWNRQAPGKERELVDAISKSGTRTYYADSVKGRFTISRDNAKNTVYLQMKSLKPEVTAVYYCAAEALYYYRLGWVYLRYDYWGQGTQVTVSS experimental_value="high polyreactivity"

----------
experimental details: yeast display, Sf9 membrane polyspecificity reagent, FACS + sequencing; frameworks hold sequencing errors
property: polyreactivity (PSR sort gate)

entry_sequence=QVQLVESGGGLVQAGGSLRLSCAASGSISQTYAMGWYRQAPGKERELVAAISSSGASTYYADSVKGRFTISRDNAKNTVYLQMNSLKPEDTAVYYCAVVPSSTYHSYDYWGQGTQVTVSS property="polyreactivity (PSR sort gate)" experimental_value="high polyreactivity"
entry_sequence=QVQLVESGGGLVQAGGSLRLSCAASGRIFPPNAMGWYRQAPGKERELVAGITSSGDTTYYADSVKGRFTISRDNAKNTVYLQMTSLKPEDTAVYYCAKDEVYADDRSALFDYWGQGTQVTVSS property="polyreactivity (PSR sort gate)" experimental_value="low polyreactivity"
entry_sequence=QVQLVESGGGLVQAGGSLRLSCAASGITIYDNDMGWYRQAPWKERELVAGITRTTVGTYYADSVKGRFTISRDNAKNTVYLQMNSLKPEDTAVYYCAATSLAGYYQFDYWGQGTQVTVSS property="polyreactivity (PSR sort gate)" experimental_value="low polyreactivity"
entry_sequence=QVQLVESGGGLVQAGGSLRLSCAASGLTSGYYAMGWYRQAPGKEREFVAAITWRSGSTYYADSVKGRFTISRDNAKNTVYLQMNSLKPEDTAVYYCAAVSVIYHGHNRSTYEYWGQGTQVTVSS property="polyreactivity (PSR sort gate)" experimental_value="high polyreactivity"

// sample QVHLVESGGGLVQAGGSLRLSCAASGRNFYANAMGWYRQAPGKERELVAAISSGGSTYYADSVKGRFTISRDNAKNTVYLQMKSLKPEDTAVYYCAVYTHKKVRPEYDYWGQGTQVTVSS , its polyreactivity (PSR sort gate) was low polyreactivity

----------
experimental details: yeast display, Sf9 membrane polyspecificity reagent, FACS + sequencing; frameworks hold sequencing errors
property: polyreactivity (PSR sort gate)

Here is how some sequences turned out for polyreactivity (PSR sort gate).
entry_sequence=QVQLVESGGGIVQAGGSLRLSCAASGSTFDVYAMGWYRQAPGKERELVAVINTSGTRTYYADSVKGRFTISRDNAKNTVYLQMNSLKPEDTAVYYCAVSYLSTLGRSRYDYWGQGTQVTVSS property="polyreactivity (PSR sort gate)" experimental_value="low polyreactivity"
entry_sequence=QVQIVESGGGLVQAGGSLRLSCAASGFIFWDYAMGWYRQAPGKERELVAAISDSGGDTYYADSVKGRFTISRDNAKNTVYLQMNSLKPEDTAVYYCAADVELWVFRGQQYDYWGQGTQVTVSS property="polyreactivity (PSR sort gate)" experimental_value="low polyreactivity"
entry_sequence=QVQLVESGGRLVQAGGSLRLSCAASGRIFRRYAMGWYRQAPGKERELVAAISGSGGSTYYADSVKGRFTISRDNAKNTVYLQMNCLKPEDTAVYYCAARVGLGYDRLKSEYNYWGQGTQVTVSS property="polyreactivity (PSR sort gate)" experimental_value="high polyreactivity"
entry_sequence=QVQLVESGVGLVQAGGSLRLSCAASGRLFQYYAMGWYRQAPGKERELVASISGTGGSTYYADSVKGRFTISRDNAKNTVYLQMNSLKPEDTAVYYCAVRVKLQYWREYNYWGQGTQVTVSS property="polyreactivity (PSR sort gate)" experimental_value="high polyreactivity"
entry_sequence=QVQLQESGGGLVQAGVSLRLSCAASGSIFADVQMGWYRQAPGKERELVASIIFRGTTTYYADSVKGRFTISRDNAKNTVYLQMSSLKPEDTAVYYCAVGRSEGGDFAYWGQGTHVTVSS property="polyreactivity (PSR sort gate)" experimental_value="low polyreactivity"
entry_sequence=QVQLVESGGGLVQAGGSLRLSCAASGFTFTRYAMGWYRQAPGKERELVAVITSSGTSTYYADSVKGRFTISRDNAKNTVYLQMNSLKPEDTAVYYCAARTHRRDFYYWGQGTQVTVSS property="polyreactivity (PSR sort gate)" experimental_value="high polyreactivity"

// sample QVQLVESGGGLVQEGGSLRLSCAASGFIFRGNGMGWYRQAPGKERELVAAIDSTDSKNYADSVKGRFTISRDNAKNTVYLQMNSLKPEDTAVYYCAAGVSWYGPYDYLWFYAFDYWGQGTQVTVSS , its polyreactivity (PSR sort gate) was low polyreactivity

// sample QVHLVESGGGLVQAGGSLRLSCAATGRTFRSYAMGWYRQAPGKEREFVAAISRSGASTRYPDSVKGRFTISRDIAKTTVYLQMNSLKPEVTAVYYCAAVWPDVRGYDYWGQGTEVTVSS , its polyreactivity (PSR sort gate) was high polyreactivity

// sample QVQLVESGGGLVQAGGSLRLSCAASGSTFDQNAMGWYRPAPGKERELVAAISGSGTRTYYADSVKGLFTISRDNAKKTVYLQMNSLKPEDTAVYYCRTGSGEYDYWGQGTQVTVSS , its polyreactivity (PSR sort gate) was high polyreactivity

// sample QVQLVESGGGLVQAGGSLRLSCAASGLTLETIAMGGYRQAPGKERELVAGITYSGGTTYYADSVKGRFTISRDNAKNTVYLQMNSLKPEDTAVFYCAAHTRTSGHIYWGQGTQVTVSS , its polyreactivity (PSR sort gate) was low polyreactivity

// sample QVQLVESGGGLVQAGGSLRLSCAASGYTFPLYAMGWYRQAPGKERELVADINIGGASTYYADSVKGRFTISRDNAKNTVYLQMYSLKPEDTAVYYCAKEYYDGYFPTFDYDYWGQGTQVTVSS , its polyreactivity (PSR sort gate) was low polyreactivity

// sample QVQLVESGGGLVQAGGSLRLSCAASGSTLRRNAMGWYRQAPGKERELVAAISGTGGSTYYADSVKGRFTISRDNAKNTVYLQMYSLKPEDTAVYYCAATGWYYDYDYWGQGTQVTVSS , its polyreactivity (PSR sort gate) was low polyreactivity

// sample QVQLVESGGGLVHAGGSLRLSCAASGSIFRPYAMGWYRQAPGKERELVAAISRRGGSTYYADSVKGRFTISRDNAKNTVYLQLISLKPEDTAVYYCAADHSGPSPYGYGYWGQGTQVTVSS , its polyreactivity (PSR sort gate) was high polyreactivity

// sample QVQLVESGGGLVQAGGSLRLSCAASGSTFDKNTMGWYRQAPGKERELVAAISRSGGSTYYADSVKGRYTISRDNAKNTVYLQMNSLKPEDTAVYYCAAQSRYWTYDYWGQGTQVTVSS , its polyreactivity (PSR sort gate) was high polyreactivity

----------
experimental details: yeast display, Sf9 membrane polyspecificity reagent, FACS + sequencing; frameworks hold sequencing errors
property: polyreactivity (PSR sort gate)

Here is how some sequences turned out for polyreactivity (PSR sort gate).
entry_sequence=QVQLVESGGGLVQAGGSLRLSCAASGRIFLRYALGWYRQAPGKEREWVAVITWSGGSTNYADSVKGRFTISRDNAKNTVYLQMNSLKPEDTAVYYCAVDNTGRSWPYDYWGQGTQVTVSS experimental_value="low polyreactivity"
entry_sequence=QVQLVESGGGLVQAGGSLRLSCAASGSTFCFYAMGWYRQSPGKERELVATITIGGRTYADSVKGRFTISRDNAKNTLYLQMNSLKPEDTAVYYCNARNHVQVLFRRDYWVQGTQVTVSS experimental_value="low polyreactivity"
entry_sequence=QVQRVESGGGLFQAGGRLRLSCAASGLIFPWYARGWYRQAPGKERELVAAISVRGGSTYYADSVKGRFTISRDNAKNTVYLQMNSLKPEDTAVYYCAASKRRASYRYYYWGQGTQVTVSS experimental_value="high polyreactivity"
entry_sequence=QVQLVESGGVLVQAGASLRLSCAASVFTFRRYAMGWYRQAPGKERELVAAITRDDSTNYADSVKGRFTISRDNAKNTVYLQMNSLKPEDTAVYYCAARLWYPYYYWGQGTQVTVSS experimental_value="high polyreactivity"
entry_sequence=QGQLVESGGGLVQAGGSLRLTCAASGSTFRWNVMGWYRQAPGKERELVAAISSTGDNTYYADSVKGRFTISRDNAKNTGYLQMNSLKPEDTAVYYCAAGRGARDRARKHGYWGQGTQVTVSS experimental_value="high polyreactivity"
entry_sequence=QVQLVESGGGLVQAGGSLRLSCAASGGTFPFYAMGWYRQAPGKERELVAAITFTTSSTYYADSVKGRFTISRDNAKNTVYLQMNSLKPEDTAVYYCAVDYGWYSSYYREYDYWGQGTQVTVSS experimental_value="low polyreactivity"
entry_sequence=QVQLVESGGGLVQAGGSLRLSCAASGFILATNAMGWSRQAPGKERELVAAISYAGGSTNYADSVKGRFTISRDNAKNTVYVPMNSLKPEDTAVYYCNAGGTVIWAWYCPVYSWGHGTQVTVSS experimental_value="low polyreactivity"
entry_sequence=QVQLEESGGGLLQAGGSLRLSCAASGSTFLRNAKGWYRQAPGKERELVATITISGGSTHYADSVKGRFTISRDNAKNTVYLPMNSLKPEDTAVYYCGTPRYPSYDYWGQGTQVTVSS experimental_value="low polyreactivity"
entry_sequence=QVQLVESGGGLVQAGGSLRLTCAASGRTFQYYSMGWYRQAPGKERELVAAISQDGGSTYYADSVKGRFTISRDNAKNTVYLQMNSLKPEDTAVYYCAARVDEYAYYALDDYWGQGTQVTVSS experimental_value="low polyreactivity"
entry_sequence=QVQLVESGGGLVQAGGSLRLSCAASGSIIDRNAMGWYRQAPGKERELVAAITSGGSTYYADSVKGRFTISRDNAKHTDYLKLNSLKPEDTAVYYCNADTDPPVPLYYWGQGSQVTVSS experimental_value="low polyreactivity"

Next sequence, please.
// sample QVQLVESGGGLVQAGGSLRLSCAASGSTFGDNAMGWYRQAPGKERELVARISSGGNTYYADSVKGRFTISRDNAKNTVYLQMNSLKPEFTAVYYCAADIIVRYKKFPYYYWGQGTQVNVSS , its polyreactivity (PSR sort gate) was high polyreactivity

All values here come from the nanobody polyreactivity screen of Harvey et al. (2022).
